- targetOrSystem: LASV A19 (lineage II) glycoprotein (Lassa virus, strain A19)
- assayNotes: cell-based or functional assay
measurementLabel: IC80 (neutralization) (µg/mL)
Express the result in µg/mL but write the number alone.

// IC80 (neutralization) lookup, binder = 9.8A (antibody, V domains shown) VH: EVQLVQSGGRLVQPGGSLRLSCVASGFTFSSHAMSWVRQAPGKGLEWVSGFSGSSGTTKYADSVKGRFTISRDNSKKTLYLQMNSLRAEDTAVYYCAKGFSPFRGVQFPYFDYWGQGTLVTVSS VL: DIVMTQSPSTLSASVGDRVTITCRASQSIDRWLAWYQQKPGKAPKLLIYQASSLERGVPSRFSGSGSGTEFTLTISSLQPDDFATYYCQQYNGYPLTFGGGTKVEIKR , result: 0.527

// IC80 (neutralization) lookup, binder = 25.6A (antibody, V domains shown) VH: QVQLQESGGGLVKAGGSLRLSCAASGFMFERYSLHWVRQTPGKGLEWVSSISSLSGSHINYADSVKGRFTISRDNAKNSLSLQMNSLRVEDTAIYYCARDRRSGSSPVPLDVWGQGTTVTVSS VL: DLPVLTQPASVSGSPGQSITISCTGTSSDVGAYNYVSWYQQHPGKAPKLIIYEVKIRPSGVSNRFSGSKSGNTASLTISGLQAEDEADYFCSSYSTNSPWVFGGGTKVTVLR , result: 3.51
